Entries and their measured GI50 follow.
Tested on: SK-OV-3
Assay: NCI tumour cell line growth inhibition, 48 h
Activity calls are given as the source filed them. Cut-off read from the data, not from the text of the source: active = GI50 up to about 1.1 µM and inactive = higher. Where a SMILES comes first, the peptide text is derived from it. The star is where a group is joined. Cbz = O=C(OCc1ccccc1)*; Bn = c1ccc(C*)cc1

compound | GI50
COc1ccc(N(C(=O)OC(C)(C)C)[C@@H]2C(C)=C[C@H]([S@@+]([O-])c3ccc(C)cc3)[C@@H]3C(=O)N(C)C(=O)[C@@H]32)cc1 | 13.2 µM (inactive)
CCc1nc2cc(F)ccc2[nH]c1=O | > 100 µM (inactive)
Cc1cc(S(=O)(=O)Nc2nc(N)n[nH]2)c(Cl)cc1Cl | > 10 µM (inactive)
C1OCC2S[C@@H]3COCO[C@@H]3C2O1 (stereo not given in full) | > 100 µM (inactive)
COC(=O)C(Cc1ccc(O)cc1)NC(=O)C(COCc1ccccc1)NC(=O)OCc1ccccc1 (stereo not given) (Cbz-Ser(Bn)-Tyr-OMe; configuration not given here) | 17.4 µM (inactive)
CN(C(=O)c1ccccc1)C1CCCC(=O)CC1 (stereo not given) | > 100 µM (inactive)
Cc1c(S(=O)(=O)N/C(N)=N/c2ccc(Cl)cc2)sc2ccc(Cl)cc12 | 26.1 µM (inactive)
O=C1O[C@H](C(Cl)(Cl)Cl)N2CCCC12 (stereo not given in full) | > 100 µM (inactive)
CN(C)CCn1c2ccccc2c2nc3cc4ccccc4cc3nc21 | 5.75 µM (inactive)
CCOC(=O)/C=C(/C(=O)OCC)n1ccc(=O)[nH]c1=O | 18.7 µM (inactive)
